experiment: NCI Yeast Anticancer Drug Screen. Data for the sgs1 mgt1 strain (AID 161); details: S. cerevisiae sgs1 mgt1 strain, at 50.0 µM
Compounds without any hit were thinned out: in the full panel of roughly 79,000, 15% have a hit. The source made the active and inactive calls. Cut-off read from the data, not from the text of the source: active = growth inhibition above about 70%; inactive = the rest.
Could you please pick one outcome from this set? active, inactive

Lab log entry: O=c1oc(C(C(F)(F)F)C(F)(F)F)nc2ccccc12 — outcome as called in the assay?
inactive

Short answer needed: outcome of this test for c1ccc(N/N=C2\CC(c3ccccc3)Oc3ccccc32)cc1 (stereo not given) ?
active

Kindly provide the recorded test outcome for the following molecule: Cc1ccc(N(C=O)c2c([N+](=O)[O-])cc([N+](=O)[O-])c3c2=[N+]([O-])CN=3)cc1
inactive

# outcome recorded in this test, key = CN(C)N1C(=O)SCC(c2ccccc2)(c2ccccc2)C1=O
inactive
